assay method text: Quantitative High-Throughput drug screen in 47 multiple myeloma cell lines against the NCATS MIPE library collection: MM1R_ATCC cell viability assay (AID 1918981); further: nearly all actives have a fitted effect of over 35% in size
test settings: MM1R multiple myeloma cells, CellTiter-Glo viability, 48 h; series mostly up to 45.8 µM
Records with an inconclusive call do not appear. Calls of active or inactive are those of the source. The call rests on the fitted dose curve; in most records, active means well fitted cell-killing curve with a large enough effect; inconclusive means small, poorly fitted or top-dose-only effect, or effect the other way; inactive means no such curve, though single readings can be large or run the other way.
A correct response names exactly one class from active, inactive

Completed entries (count: 5):
# compound, class label
rows = [
    ("CC[C@]1(O)C[C@H]2CN(CCC3=c4ccccc4=N[C]3[C@@](C(=O)OC)(c3cc4c(cc3OC)N(C)[C@H]3[C@@](O)(C(N)=O)[C@H](O)[C@]5(CC)C=CCN6CC[C@]43[C@@H]65)C2)C1", "active"),
    ("O=C1Nc2ccc(I)cc2C1=Cc1cc(Br)c(O)c(Br)c1", "inactive"),
    ("CC1(COc2ccc3c(c2)ncn3-c2ccc3cccc(N4CCC(N)CC4)c3n2)COC1", "active"),
    ("CC(O)=C(C#N)C(=O)Nc1ccc(C(F)(F)F)cc1", "active"),
    ("O=C(Nc1cccc(C(F)(F)F)c1)Nc1cc(S(=O)(=O)NC2CC2)ccc1-c1ccsc1", "active"),
]

In this assay, the call recorded for `CCNC(=O)[C@H]1O[C@@H](n2cnc3c(N)nc(NCCc4ccc(CCC(=O)O)cc4)nc32)[C@H](O)[C@H]1O` was what?
active

In this assay, the call recorded for `O=C(O)C1=CO[C@@H](O[C@@H]2O[C@H](CO)[C@H](O)[C@H](O)[C@H]2O)[C@@H]2C(CO)=CC[C@H]12` was what?
inactive

In this assay, the call recorded for `c1ccc(-c2oc3ncnc(NC[C@@H]4CCCO4)c3c2-c2ccccc2)cc1` was what?
active

In this assay, the call recorded for `O=c1[nH]c(=O)n([C@H]2C[C@@H](O)[C@@H](CO)O2)cc1C(F)(F)F` was what?
active

In this assay, the call recorded for CN1CC(=O)N2C(Cc3c([nH]c4ccccc34)[C@H]2c2ccc3c(c2)OCO3)C1=O (stereo partly drawn) was what?
inactive

* * *

assay method text: qHTS Screen of the MIPE 4.0 Collection Against Ewings Sarcoma (TC32) (AID 1259256); further: nearly all actives have a fitted effect of over 45% in size
test settings: TC32 Ewing sarcoma viability, CellTiter-Glo, 48 h; series mostly up to 45.8 µM
Results filed as inconclusive are left out. The source made the active and inactive calls. Calls follow the shape of the dose curve; as a rule, active = well fitted inhibition curve with a large enough effect; inconclusive = small, poorly fitted or top-dose-only effect; inactive = no such curve, though single readings can be large or run the other way.
A correct response names exactly one class from True for active, False for inactive

# compound, class label
rows = [
    ("Nc1[nH]nc2nnc(-c3c(-c4ccccc4)nn4ccccc34)cc12", "True"),
]

In this assay, the call recorded for CNC1[C@H](O)C(O[C@@H]2C(O)C(O[C@H]3O[C@H]([C@@H](C)NC)CC[C@H]3N)[C@@H](N)C[C@H]2N)OC[C@]1(C)O (stereo not given in full) was what?
False

In this assay, the call recorded for CN(C)CCOc1cc(-c2cn[nH]c2)ccc1NC(=O)C1COc2ccccc2O1 (stereo not given) was what?
True

In this assay, the call recorded for `N#CC(=C1Nc2ccccc2S1)c1ccnc(OCc2ccc(CN3CCOCC3)cc2)n1` was what?
True

In this assay, the call recorded for `O=C(Nc1ccc(OC(F)(F)F)cc1)c1sccc1NCc1ccnc2ccccc12` was what?
True

In this assay, the call recorded for `NC1(C(=O)N[C@@H](CCO)c2ccc(Cl)cc2)CCN(c2ncnc3[nH]ccc23)CC1` was what?
True

In this assay, the call recorded for `CCc1cccc(CC)c1NC(=O)N1Cc2[nH]nc(NC(=O)c3ccc(N4CCN(C)CC4)cc3)c2C1` was what?
True

In this assay, the call recorded for CC1=C(CC(=O)O)c2cc(F)ccc2C1=Cc1ccc(S(C)=O)cc1 (stereo not given) was what?
True

In this assay, the call recorded for `O=C1NC(=O)C(c2cnc3ccccn23)=C1c1cn2c3c(cccc13)CN(C(=O)N1CCOCC1)CC2` was what?
True

In this assay, the call recorded for `CC(C)(C)c1[nH]cnc1C=c1[nH]c(=O)c(=Cc2ccccc2)[nH]c1=O` was what?
False

* * *

assay method text: Quantitative High-Throughput drug screen in 47 multiple myeloma cell lines against the NCATS MIPE library collection: KMS28PE_JCRB cell viability assay (AID 1918983); further: nearly all actives have a fitted effect of over 35% in size
test settings: KMS28PE multiple myeloma viability, CellTiter-Glo ATP, 48 h; series mostly up to 45.8 µM
Results filed as inconclusive are left out. Calls of active or inactive are those of the source. Calls come from the whole dose curve; as a rule, active = well fitted cell-killing curve with a large enough effect; inconclusive = small, poorly fitted or top-dose-only effect, or effect the other way; inactive = no such curve, though single readings can be large or run the other way.
A correct response names exactly one class from true (1) for active, false (0) for inactive

Completed entries (count: 6):
# compound, class label
measured = [
    ("NC[C@H]1O[C@H](O[C@@H]2[C@@H](O)[C@@H](O[C@H]3O[C@H](CO)[C@@H](O)[C@H](N)[C@@H]3O)[C@H](N)C[C@@H]2N)[C@H](O)[C@@H](O)[C@H]1O", "false (0)"),
    ("Fc1ccc(C(c2ccc(F)cc2)N2CCN(CC=Cc3ccccc3)CC2)cc1", "false (0)"),
    ("COc1ccc(-c2cc(=O)c3c(O)cc(O[C@@H]4O[C@H](CO[C@@H]5O[C@@H](C)[C@H](O)[C@@H](O)[C@@H]5O)[C@@H](O)[C@H](O)[C@@H]4O)cc3o2)cc1O", "false (0)"),
    ("FC(F)(F)c1ccc(C=Cc2nc(COc3ccc(CCCCn4ccnn4)cc3)co2)cc1", "true (1)"),
    ("CCC[C@@H](NC(=O)[C@@H]1[C@H]2CCC[C@@H]2CN1C(=O)[C@@H](NC(=O)[C@@H](NC(=O)c1cnccn1)C1CCCCC1)C(C)(C)C)C(=O)C(=O)NC1CC1", "true (1)"),
    ("CC(C)CN(C[C@@H](O)[C@H](Cc1ccccc1)NC(=O)O[C@H]1CO[C@H]2OCC[C@H]21)S(=O)(=O)c1ccc(N)cc1", "true (1)"),
]

Attention now shifts to the item below.
In this assay, the call recorded for CN1c2ccccc2C(=O)N2CCc3c([nH]c4ccccc34)C21 (configuration not stated) was what?
false (0)

* * *

assay method text: qHTS of pediatric cancer cell lines to identify multiple opportunities for drug repurposing: Primary screen for OHS-50 cells (AID 1347103); further: nearly all actives have a fitted effect of over 40% in size; further: potency means the concentration at half of the fitted maximal effect
test settings: OHS-50 osteosarcoma viability, CellTiter-Glo luminescence, 48 h; series mostly up to 57.3 µM
Inconclusive results are not listed. The source made the active and inactive calls. The call rests on the fitted dose curve; in most records, active means well fitted cell-killing curve with a large enough effect; inconclusive means small, poorly fitted or top-dose-only effect; inactive means no such curve, though single readings can be large or run the other way.
readout kind: Potency

Field: example entries. Status: answers known.
# molecule, Potency
rows = [
    ("C[C@@H]1[C@H](O)[C@@H](C)C=CC=CC=CC=CC=CC=CC=C[C@H](O[C@@H]2O[C@H](C)[C@H](O)[C@H](N)[C@@H]2O)C[C@@H]2O[C@](O)(C[C@@H](O)C[C@@H](O)[C@H](O)CC[C@@H](O)C[C@@H](O)CC(=O)O[C@H]1C)C[C@H](O)[C@@H]2C(=O)O", "inactive"),
    ("NC[C@H]1O[C@H](O[C@@H]2[C@@H](O)[C@@H](O[C@H]3O[C@H](CO)[C@@H](O)[C@H](N)[C@@H]3O)[C@H](N)C[C@@H]2N)[C@H](O)[C@@H](O)[C@H]1O", "inactive"),
    ("Cc1ccc(S(=O)(=O)Nc2nc3ccccc3nc2Nc2ccc3nsnc3c2)cc1", "0.0421 µM (active)"),
    ("CC1C(=O)OC2C(O)C34C5CC(C(C)(C)C)C36C(OC(=O)C6O)OC4(C(=O)O5)C12O (configuration not stated)", "inactive"),
    ("O=C(O)Cc1cccc(OCCCN(Cc2cccc(C(F)(F)F)c2Cl)CC(c2ccccc2)c2ccccc2)c1", "27.3 µM (active)"),
]

Which Potency is listed for `CC[C@H](NC(=O)[C@H](C)NC)C(=O)N1C[C@@H](O)C[C@H]1Cc1c(-c2[nH]c3cc(F)ccc3c2C[C@H]2C[C@H](O)CN2C(=O)[C@H](CC)NC(=O)[C@H](C)NC)[nH]c2cc(F)ccc12` ?
0.432 µM (active)

Which Potency is listed for `C=CC(=O)Nc1cccc(Sc2nc(Nc3ccc(N4CCN(C)CC4)cc3)ncc2Cl)c1` ?
27.3 µM (active)

Which Potency is listed for CN1CCN2c3ncccc3Cc3ccccc3C2C1 (configuration not stated) ?
inactive

Which Potency is listed for `OCCn1cc(-c2ccc3c(c2)CCC3=NO)c(-c2ccncc2)n1` ?
inactive

Which Potency is listed for O[C@@H](COc1cccc2ncccc12)CN1CCN(C2c3ccccc3[C@@H]3[C@H](c4ccccc42)C3(F)F)CC1 (some centres not stated) ?
15.5 µM (active)

Which Potency is listed for `CNC(=O)c1cc(COc2nnc(Nc3ccc(Cl)cc3)c3ccoc23)ccn1` ?
21.7 µM (active)

* * *

system under test: Calcium and integrin-binding protein 1 (Homo sapiens) (UniProt Q99828)
Sequence (Q99828 whole entry, looked up): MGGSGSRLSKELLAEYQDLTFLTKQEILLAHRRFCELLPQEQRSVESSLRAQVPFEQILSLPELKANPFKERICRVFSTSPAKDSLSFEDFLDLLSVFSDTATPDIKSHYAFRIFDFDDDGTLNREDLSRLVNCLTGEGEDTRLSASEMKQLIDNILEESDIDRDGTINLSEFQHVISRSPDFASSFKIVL
assay method text: Primary qHTS for Identification of Calcium Integrin Binding Protein 1 (CIB1) Competitor (AID 1508620);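 further: GST tagged CIB1 binding a fluorescein labelled alphaIIb integrin peptide tracer; top concentration of the series differs between compounds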
test settings: CIB1-GST / FITC-alphaIIb peptide fluorescence polarization; series mostly up to 57.7 µM
Results filed as inconclusive are left out. The source made the active and inactive calls. Calls come from the whole dose curve; as a rule, active = well fitted inhibition curve with a large enough effect; inconclusive = small, poorly fitted or top-dose-only effect; inactive = flat fitted curve, though single readings scatter.
A correct response names exactly one class from 1 = active, 0 = inactive

Completed entries (count: 6):
# compound, class label
rows = [
    ("C[C@]12CCC3=C4CCC(=O)C=C4CC[C@@H]3[C@H]1CC[C@@]2(O)CC#N", 0),
    ("COC(=O)Nc1ccc(-c2nc(N3CCOCC3)c3cnn(C4CCN(C(=O)OC)CC4)c3n2)cc1", 0),
    ("COc1ccc2cc1Oc1ccc(cc1)C[C@H]1c3cc(c(OC)cc3CCN1C)Oc1c(OC)c(OC)cc3c1[C@H](C2)N(C)CC3", 0),
    ("Cc1cnc(CNC(=O)c2c(=O)c3ccc(N4CCCN(C)CC4)nc3n3c2sc2ccccc23)cn1", 0),
    ("COc1c(C)cnc(Cn2cnc3c(Cl)nc(N)nc32)c1C", 0),
    ("CC(C)n1c(C=C[C@H](O)C[C@H](O)CC(=O)O)c(-c2ccc(F)cc2)c2ccccc21", 0),
]

In this assay, the call recorded for `COc1cc2c(cc1OC)CC(=O)N(CCCN(C)C[C@H]1Cc3cc(OC)c(OC)cc31)CC2` was what?
0

In this assay, the call recorded for `COc1cc2c(cc1Cc1cccc(Cl)c1F)c(=O)c(C(=O)O)cn2[C@H](CO)C(C)C` was what?
0

In this assay, the call recorded for `Cn1cnc(-c2cc3nccc(Oc4ccc(NC(=S)NC(=O)Cc5ccccc5)cc4F)c3s2)c1` was what?
0

In this assay, the call recorded for `CCCCC(C)(C)[C@H](O)C=C[C@H]1[C@H](O)CC(=O)[C@H]1CC=CCCCC(=O)O` was what?
0

In this assay, the call recorded for `COc1cc(Cl)cn2c(-c3cccc(NC4CNC4)n3)cnc12` was what?
0

In this assay, the call recorded for `CCOC(=O)N1CCN([N+]([O-])=NOc2cc(ON=[N+]([O-])N3CCN(C(=O)OCC)CC3)c([N+](=O)[O-])cc2[N+](=O)[O-])CC1` was what?
0

In this assay, the call recorded for `CC[C@H](CC#N)OC(=O)N[C@@H](C)c1cccc(NC(=O)Nc2ccc(-c3cnco3)c(OC)c2)c1` was what?
0
